EC50 values for the binders below.
# SYSTEM_UNDER_TEST: T1, human ROR1 (full-length, on the cell surface) (human, UniProt Q01973 30-937)
# T1 construct: whole, on cells; the tumour cell lines carry their own ROR1; also called Ba/F3-ROR1 cells; Jeko-1
# ASSAY_SUMMARY: flow cytometry, Jeko-1 cells
Use nM as the unit, but write only the number.

These recorded examples may help you get a feel for the data.
BINDER	VALUE_UNITS	EC50
19F6-Hu35V4 (antibody, human IgG1, kappa, V domains shown, humanized, human IgG1 / kappa) VH: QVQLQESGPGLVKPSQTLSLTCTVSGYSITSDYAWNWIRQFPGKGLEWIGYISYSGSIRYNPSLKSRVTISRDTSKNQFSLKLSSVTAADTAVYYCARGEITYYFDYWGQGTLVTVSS VL: ETTLTQSPAFMSATPGDKVTISCKASTSIDNDMNWYQQKPGKPPKLIISEGNTLRPGIPPRFSSSGYGTDFTFTINKIESEDAATYYCLQSNDLPLTFGQGTKLEIKR	nM	0.2
3D8-Hu97 (antibody, human IgG1, kappa, V domains shown, humanized, human IgG1 / kappa) VH: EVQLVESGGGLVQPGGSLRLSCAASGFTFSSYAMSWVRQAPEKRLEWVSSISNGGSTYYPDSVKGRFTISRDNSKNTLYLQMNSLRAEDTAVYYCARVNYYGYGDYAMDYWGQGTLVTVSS VL: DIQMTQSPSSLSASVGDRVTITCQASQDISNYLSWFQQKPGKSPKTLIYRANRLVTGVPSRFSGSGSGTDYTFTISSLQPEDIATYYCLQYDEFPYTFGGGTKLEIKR	nM	0.43
38F8-Hu26 (antibody, human IgG1, kappa, V domains shown, humanized, human IgG1 / kappa) VH: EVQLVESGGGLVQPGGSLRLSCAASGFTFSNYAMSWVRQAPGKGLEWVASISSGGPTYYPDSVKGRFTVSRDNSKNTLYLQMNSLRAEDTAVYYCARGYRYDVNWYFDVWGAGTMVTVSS VL: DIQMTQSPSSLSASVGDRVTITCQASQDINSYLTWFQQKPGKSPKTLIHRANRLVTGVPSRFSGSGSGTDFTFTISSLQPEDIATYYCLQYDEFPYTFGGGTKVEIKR	nM	0.09
38F8-Hu17 (antibody, human IgG1, kappa, V domains shown, humanized, human IgG1 / kappa) VH: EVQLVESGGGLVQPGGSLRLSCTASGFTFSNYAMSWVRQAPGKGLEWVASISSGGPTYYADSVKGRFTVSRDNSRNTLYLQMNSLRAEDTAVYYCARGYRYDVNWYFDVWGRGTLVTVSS VL: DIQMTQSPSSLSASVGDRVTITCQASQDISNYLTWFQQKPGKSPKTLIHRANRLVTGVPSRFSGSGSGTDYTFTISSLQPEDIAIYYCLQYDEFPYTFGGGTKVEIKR	nM	0.07

Note down EC50 recorded for 19F6-Hu32 (antibody, human IgG1, kappa, V domains shown, humanized, human IgG1 / kappa) VH: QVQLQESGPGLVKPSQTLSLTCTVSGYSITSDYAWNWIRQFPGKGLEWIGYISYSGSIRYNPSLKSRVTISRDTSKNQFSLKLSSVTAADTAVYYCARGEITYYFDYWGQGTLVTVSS VL: DIQMTQSPSSLSASVGDRVTITCITTTDIDDDMNWYQQKPGKAPKLLISEGNTLQSGVPSRFSGSGYGTDFTLTISSLQPEDFATYYCLQSNDLPLTFGQGTKLEIKR
0.18

Output measured EC50 for this item: 38F8-Hu56 (antibody, human IgG1, kappa, V domains shown, humanized, human IgG1 / kappa) VH: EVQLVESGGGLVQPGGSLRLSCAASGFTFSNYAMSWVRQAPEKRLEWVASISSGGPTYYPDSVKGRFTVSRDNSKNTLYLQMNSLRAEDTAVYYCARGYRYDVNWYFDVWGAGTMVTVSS VL: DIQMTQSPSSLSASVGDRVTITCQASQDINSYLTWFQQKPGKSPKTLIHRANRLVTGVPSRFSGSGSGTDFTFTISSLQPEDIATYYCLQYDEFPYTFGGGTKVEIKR
0.1

In one line, give reported EC50 of the entry 19F6-Hu35 (antibody, human IgG1, kappa, V domains shown, humanized, human IgG1 / kappa) VH: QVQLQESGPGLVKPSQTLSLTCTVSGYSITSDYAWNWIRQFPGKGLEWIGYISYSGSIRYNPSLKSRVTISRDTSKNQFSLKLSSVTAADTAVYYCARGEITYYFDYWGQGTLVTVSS VL: ETTLTQSPAFMSATPGDKVTISCKASTDIDDDMNWYQQKPGEPPKLIISEGNTLRPGIPPRFSSSGYGTDFTFTINNIESEDAADYYCLQSNDLPLTFGQGTKLEIKR .
0.15

Query EC50 for 19F6-Hu25 (antibody, human IgG1, kappa, V domains shown, humanized, human IgG1 / kappa) VH: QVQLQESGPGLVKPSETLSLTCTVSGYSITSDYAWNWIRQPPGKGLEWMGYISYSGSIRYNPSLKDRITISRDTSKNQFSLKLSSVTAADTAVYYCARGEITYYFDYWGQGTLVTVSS VL: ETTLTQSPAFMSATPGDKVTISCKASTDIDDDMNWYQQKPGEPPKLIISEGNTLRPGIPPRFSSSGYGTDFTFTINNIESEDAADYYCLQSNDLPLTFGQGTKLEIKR
0.19

Determine from records and report EC50 for 38F8-Hu28 (antibody, human IgG1, kappa, V domains shown, humanized, human IgG1 / kappa) VH: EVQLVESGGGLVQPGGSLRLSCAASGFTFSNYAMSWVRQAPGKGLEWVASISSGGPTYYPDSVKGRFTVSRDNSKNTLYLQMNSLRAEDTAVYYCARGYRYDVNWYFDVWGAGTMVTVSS VL: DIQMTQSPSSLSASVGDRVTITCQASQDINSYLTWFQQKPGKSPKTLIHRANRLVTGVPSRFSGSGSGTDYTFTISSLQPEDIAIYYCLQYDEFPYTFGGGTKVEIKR
0.12

Write down EC50 measured for item 3D8-Hu87 (antibody, human IgG1, kappa, V domains shown, humanized, human IgG1 / kappa) VH: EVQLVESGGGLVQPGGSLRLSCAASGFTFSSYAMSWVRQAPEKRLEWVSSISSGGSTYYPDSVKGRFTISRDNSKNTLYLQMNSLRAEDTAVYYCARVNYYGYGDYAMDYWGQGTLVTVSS VL: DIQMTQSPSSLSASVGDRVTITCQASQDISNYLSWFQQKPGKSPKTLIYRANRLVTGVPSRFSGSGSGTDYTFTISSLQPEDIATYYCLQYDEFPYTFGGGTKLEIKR
0.17
